These data points were gathered from PubChem BioAssay AID651608.

Listed below: inhibition values for each entry.
# target-desc: ADP-ribosylation factor GTPase-activating protein 1 (Rattus norvegicus)
# experiment-notes: retest of rat ARFGAP1 GAP activity blockers – biochemical, fluorescence polarization, triplicate, confirmation (AID 651608);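 further: 0% = Arfgap1 plus ARF1-GTP with DMSO and 100% = wells lacking Arfgap1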
# settings: ARFGAP1-stimulated ARF1 GTP hydrolysis, GDP tracer FP; at 16.5 µM; stronger effect = higher value
The list shows a part of the results.

{"columns": ["compound", "inhibition / %"],
 "data": [
  ["O=C(O)CSCc1ccc(C(=O)O)o1", 5.16],
  ["CCN(CC)c1ccc(NC(=O)CN2CCN(c3ccccn3)CC2)cc1", -5.51],
  ["Cc1cc(C)cc(NC(=O)C2CCCN(S(=O)(=O)c3ccc4[nH]c(=O)ccc4c3)C2)c1 (stereo not given)", 0.48],
  ["Cc1ccc2nc(N3C(=O)C(O)=C(C(=O)c4ccco4)C3c3cccc(O)c3)sc2c1 (stereo not given)", 18.3],
  ["O=C(Nc1cccc(-c2nc3ccccc3[nH]2)c1)c1ccc(C(=O)Nc2cccc(-c3nc4ccccc4[nH]3)c2)cc1", 60.7],
  ["COc1ccc(-n2nc3c(N4CCC(C(=O)NCc5ccccc5)CC4)nnc(C)c3c2C)cc1", 44],
  ["COc1ccc(C(N)c2csc(NC(=O)Nc3cccc(C(F)(F)F)c3)n2)cc1 (stereo not given)", 19.2],
  ["Cc1ccc(-n2ncc3c2ncn2nc(-c4ccco4)nc32)c(C)c1", 3.31],
  ["O=C(NC1CCCCC1)c1ccc(CNc2c(N3CCOCC3)c(=O)c2=O)cc1", -1.66],
  ["OC(COc1cccc(OCC(O)CN2CCCC2)c1)CN1CCCC1 (stereo not given)", 1.32]
]}
